# protocol: Drug excretion in bile duct-cannulated MDR1A knockout Sprague-Dawley rat feces at 1 mg/kg, iv up to 24 hrs
# Assay type: ADME, organism-based
# Set-up: dose 1 mg/kg, route intravenous
# experimentalContext: faeces, read-out: Drug excretion
testReadout: dose excreted at 24 h (%)

INSERT INTO results (molecule, readoutunits, measuredresult) VALUES
  ('CC(=O)O[C@H]1C(=O)[C@@]2(C)[C@H]([C@H](OC(=O)c3ccccc3)[C@]3(O)C[C@H](OC(=O)[C@H](O)[C@@H](NC(=O)c4ccccc4)c4ccccc4)C(C)=C1C3(C)C)[C@]1(OC(C)=O)CO[C@@H]1C[C@@H]2O [PACLITAXEL]', '%', 0.21);

* * *

# protocol: Oral bioavailability in BCRP knockout […]
# Format: ADME, organism-based
# experimentalContext: in vivo
testReadout: bioavailability (%)

INSERT INTO assay_data (molecule, measuredresult) VALUES
  ('O=C(O)c1cc(/N=N/c2ccc(S(=O)(=O)Nc3ccccn3)cc2)ccc1O [SULFASALAZINE]', 37);

* * *

# protocol: AUC (infinity) in MDR1A knockout Sprague-Dawley rat at 5 mg/kg, iv by LC-MS/MS analysis
# Format: ADME, organism-based
# Parameters: time infinity, dose 5 mg/kg, route intravenous
# experimentalContext: plasma
testReadout: AUC(0-inf) (ng·h/mL)

INSERT INTO results (linenotation, testreadout, readoutunits, measuredresult) VALUES
  ('O=C(O)c1cc(/N=N/c2ccc(S(=O)(=O)Nc3ccccn3)cc2)ccc1O', 'AUC(0-inf)', 'ng·h/mL', 6260);

* * *

# protocol: Half life in wild-type Wistar rat at 5 mg/kg, po by LC-MS/MS analysis
# Assay type: ADME, organism-based
# Set-up: dose 5 mg/kg, route oral
# experimentalContext: in vivo
testReadout: half-life

INSERT INTO results (linenotation, measuredresult) VALUES
  ('O=C(O)c1cc(/N=N/c2ccc(S(=O)(=O)Nc3ccccn3)cc2)ccc1O', '2.1 h');

* * *

# protocol: Tmax in wild-type Wistar rat at 5 mg/kg, po by LC-MS/MS analysis
# Assay type: ADME, organism-based
# Design: dose 5 mg/kg, route oral
# experimentalContext: in vivo
testReadout: Tmax (min)

INSERT INTO assay_data (linenotation, testreadout, measuredresult) VALUES
  ('O=C(O)c1cc(/N=N/c2ccc(S(=O)(=O)Nc3ccccn3)cc2)ccc1O', 'Tmax', 30);

* * *

# protocol: Clearance in wild-type Wistar rat at 5 mg/kg, iv by LC-MS/MS analysis
# Format: ADME, organism-based
# Parameters: dose 5 mg/kg, route intravenous
# experimentalContext: in vivo
testReadout: clearance (mL/min/kg)

INSERT INTO measurements (linenotation, measuredresult) VALUES
  ('O=C(O)c1cc(/N=N/c2ccc(S(=O)(=O)Nc3ccccn3)cc2)ccc1O', 6.8);

* * *

# protocol: AUC (infinity) in wild-type Wistar rat at 5 mg/kg, iv by LC-MS/MS analysis
# Type: ADME, organism-based
# Set-up: time infinity, dose 5 mg/kg, route intravenous
# experimentalContext: plasma
testReadout: AUC(0-inf)

INSERT INTO measurements (linenotation, measuredresult) VALUES
  ('O=C(O)c1cc(/N=N/c2ccc(S(=O)(=O)Nc3ccccn3)cc2)ccc1O', '12300 ng·h/mL');

* * *

# protocol: in vivo
# experimentalContext: Sprague-Dawley, rat, plasma, po, 10 mg/kg
testReadout: AUC(0-inf) (ng·h/mL)

INSERT INTO assay_data (molecule, measuredresult) VALUES
  ('CN(C)C(=O)C(CCN1CCC(O)(c2ccc(Cl)cc2)CC1)(c1ccccc1)c1ccccc1 [LOPERAMIDE]', 1020);

* * *

# protocol: Tmax in MDR1A knockout Sprague-Dawley rat at 10 mg/kg, po by LC-MS/MS analysis
# Format: ADME, organism-based
# Set-up: dose 10 mg/kg, route oral
# experimentalContext: in vivo
testReadout: Tmax (min)

INSERT INTO measurements (molecule, measuredresult) VALUES
  ('CN(C)C(=O)C(CCN1CCC(O)(c2ccc(Cl)cc2)CC1)(c1ccccc1)c1ccccc1 [LOPERAMIDE]', 48);

* * *

# protocol: Oral bioavailability in MRP2-deficient Wistar rat at 5 mg/kg by LC-MS/MS analysis
# Type: ADME, organism-based
# experimentalContext: in vivo
testReadout: bioavailability (%)

INSERT INTO measurements (linenotation, measuredresult) VALUES
  ('O=C(O)c1cc(/N=N/c2ccc(S(=O)(=O)Nc3ccccn3)cc2)ccc1O', 1.5);

* * *

# protocol: Volume of distribution at steady state in MDR1A knockout Sprague-Dawley rat at 5 mg/kg, iv by LC-MS/MS analysis
# Type: ADME, organism-based
# Design: dose 5 mg/kg, route intravenous
# experimentalContext: in vivo, read-out: Vdss
testReadout: Vd

INSERT INTO measurements (linenotation, measuredresult) VALUES
  ('O=C(O)c1cc(/N=N/c2ccc(S(=O)(=O)Nc3ccccn3)cc2)ccc1O', '0.285 L/kg');

* * *

# protocol: in vivo
# experimentalContext: Sprague-Dawley, rat, plasma, po, 10 mg/kg
testReadout: AUC(0-inf) (ng·h/mL)

INSERT INTO results (molecule, measuredresult) VALUES
  ('CN(C)C(=O)C(CCN1CCC(O)(c2ccc(Cl)cc2)CC1)(c1ccccc1)c1ccccc1 [LOPERAMIDE]', 980);

* * *

# protocol: Half life in MDR1A knockout Sprague-Dawley rat at 5 mg/kg, iv by LC-MS/MS analysis
# Type: ADME, organism-based
# Set-up: dose 5 mg/kg, route intravenous
# experimentalContext: in vivo
testReadout: half-life (h)

INSERT INTO assay_data (compound, measuredresult) VALUES
  ('O=C(O)c1cc(/N=N/c2ccc(S(=O)(=O)Nc3ccccn3)cc2)ccc1O [SULFASALAZINE]', 1);

* * *

# protocol: Cmax in MRP2 knockout Sprague-Dawley rat at 5 mg/kg, po by LC-MS/MS analysis
# Type: ADME, organism-based
# Parameters: dose 5 mg/kg, route oral
# experimentalContext: in vivo
testReadout: Cmax

INSERT INTO assay_data (linenotation, measuredresult) VALUES
  ('CC(=O)O[C@H]1C(=O)[C@@]2(C)[C@H]([C@H](OC(=O)c3ccccc3)[C@]3(O)C[C@H](OC(=O)[C@H](O)[C@@H](NC(=O)c4ccccc4)c4ccccc4)C(C)=C1C3(C)C)[C@]1(OC(C)=O)CO[C@@H]1C[C@@H]2O', '151 ng/mL');

* * *

# protocol: Half life in wild-type Sprague-Dawley rat at 10 mg/kg, po by LC-MS/MS analysis
# Assay type: ADME, organism-based
# Set-up: dose 10 mg/kg, route oral
# experimentalContext: in vivo
testReadout: half-life (h)

INSERT INTO measurements (molecule, testreadout, measuredresult) VALUES
  ('CN(C)C(=O)C(CCN1CCC(O)(c2ccc(Cl)cc2)CC1)(c1ccccc1)c1ccccc1 [LOPERAMIDE]', 'half-life', 13);

* * *

# protocol: Cmax in wild-type Sprague-Dawley rat at 5 mg/kg, po by LC-MS/MS analysis
# Format: ADME, organism-based
# Design: dose 5 mg/kg, route oral
# experimentalContext: in vivo
testReadout: Cmax

INSERT INTO assay_data (linenotation, measuredresult) VALUES
  ('CC(=O)O[C@H]1C(=O)[C@@]2(C)[C@H]([C@H](OC(=O)c3ccccc3)[C@]3(O)C[C@H](OC(=O)[C@H](O)[C@@H](NC(=O)c4ccccc4)c4ccccc4)C(C)=C1C3(C)C)[C@]1(OC(C)=O)CO[C@@H]1C[C@@H]2O', '30 ng/mL');

* * *

# protocol: Half life in wild-type Sprague-Dawley rat at 5 mg/kg, iv by LC-MS/MS analysis
# Format: ADME, organism-based
# Parameters: dose 5 mg/kg, route intravenous
# experimentalContext: in vivo
testReadout: half-life (h)

INSERT INTO assay_data (compound, measuredresult) VALUES
  ('O=C(O)c1cc(/N=N/c2ccc(S(=O)(=O)Nc3ccccn3)cc2)ccc1O [SULFASALAZINE]', 1.6);

* * *

# protocol: Tmax in wild-type Sprague-Dawley rat treated with sulfasalazine at 20 mg/kg, po by LC-MS/MS analysis
# Type: ADME, organism-based
# Design: dose 20 mg/kg, route oral
# experimentalContext: in vivo
testReadout: Tmax (h)

INSERT INTO measurements (compound, measuredresult) VALUES
  ('Nc1ccc(S(=O)(=O)Nc2ccccn2)cc1 [SULFAPYRIDINE]', 5);

* * *

# protocol: Oral bioavailability in wild-type Sprague-Dawley rat at 20 mg/kg by LC-MS/MS analysis
# Format: ADME, organism-based
# experimentalContext: in vivo
testReadout: bioavailability (%)

INSERT INTO results (compound, testreadout, readoutunits, measuredresult) VALUES
  ('O=C(O)c1cc(/N=N/c2ccc(S(=O)(=O)Nc3ccccn3)cc2)ccc1O [SULFASALAZINE]', 'bioavailability', '%', 1.4);
